# credit: patent US20250129047A1

- target-of-assay: EGFR (d746-750) T790M C797S (Homo sapiens, UniProt P00533, C797S/DEL746-750/T790M)
- Construct: purchased SignalChem E10-122UG
- Sequence (P00533 with tags, fused parts or gaps DEL746-750/T790M/C797S limits assumed): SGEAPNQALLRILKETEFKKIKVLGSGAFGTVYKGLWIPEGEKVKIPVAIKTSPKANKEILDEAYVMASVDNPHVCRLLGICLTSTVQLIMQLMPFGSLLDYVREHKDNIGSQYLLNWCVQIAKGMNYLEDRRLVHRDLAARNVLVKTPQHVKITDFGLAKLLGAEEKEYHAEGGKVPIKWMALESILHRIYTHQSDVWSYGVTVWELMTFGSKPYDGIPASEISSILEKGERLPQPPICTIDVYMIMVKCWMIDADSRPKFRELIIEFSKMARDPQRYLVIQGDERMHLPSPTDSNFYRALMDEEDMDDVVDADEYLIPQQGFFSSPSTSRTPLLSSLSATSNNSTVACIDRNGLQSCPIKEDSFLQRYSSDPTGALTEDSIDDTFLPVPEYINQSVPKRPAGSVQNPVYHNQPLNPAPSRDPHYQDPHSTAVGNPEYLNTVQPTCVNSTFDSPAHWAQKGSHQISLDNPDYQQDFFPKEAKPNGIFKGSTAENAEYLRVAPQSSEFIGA
- protocol-summary: Biochemical EGFR inhibition assay (Caliper mobility shift), EGFR d746-750 T790M C797S
- condition-details: apparent IC50; 1.0 mM ATP or ATP Km; FL-Peptide 22 substrate; 25° C.
measured-property: IC50 (nM)

a = C=CC(=O)N1CCC[C@@H]1c1ccc(N2C[C@H](CS(C)(=O)=O)[C@H]2C)c2cnc(Nc3ccnc(N4CC[C@@H](OC)[C@@H](F)C4)n3)cc12
b = C=CC(=O)N1CCC[C@H]1c1ccc(N2C[C@H](CS(C)(=O)=O)[C@H]2C)c2cnc(Nc3ccnc(N4CC[C@@H](OC)[C@@H](F)C4)n3)cc12
Pick one, a or b : lowest reported IC50. Label of pick, please.
a

* * *

- target-of-assay: EGFR L858R T790M (Homo sapiens, UniProt P00533, L858R/T790M)
- Sequence (P00533 25-1210 T790M/L858R): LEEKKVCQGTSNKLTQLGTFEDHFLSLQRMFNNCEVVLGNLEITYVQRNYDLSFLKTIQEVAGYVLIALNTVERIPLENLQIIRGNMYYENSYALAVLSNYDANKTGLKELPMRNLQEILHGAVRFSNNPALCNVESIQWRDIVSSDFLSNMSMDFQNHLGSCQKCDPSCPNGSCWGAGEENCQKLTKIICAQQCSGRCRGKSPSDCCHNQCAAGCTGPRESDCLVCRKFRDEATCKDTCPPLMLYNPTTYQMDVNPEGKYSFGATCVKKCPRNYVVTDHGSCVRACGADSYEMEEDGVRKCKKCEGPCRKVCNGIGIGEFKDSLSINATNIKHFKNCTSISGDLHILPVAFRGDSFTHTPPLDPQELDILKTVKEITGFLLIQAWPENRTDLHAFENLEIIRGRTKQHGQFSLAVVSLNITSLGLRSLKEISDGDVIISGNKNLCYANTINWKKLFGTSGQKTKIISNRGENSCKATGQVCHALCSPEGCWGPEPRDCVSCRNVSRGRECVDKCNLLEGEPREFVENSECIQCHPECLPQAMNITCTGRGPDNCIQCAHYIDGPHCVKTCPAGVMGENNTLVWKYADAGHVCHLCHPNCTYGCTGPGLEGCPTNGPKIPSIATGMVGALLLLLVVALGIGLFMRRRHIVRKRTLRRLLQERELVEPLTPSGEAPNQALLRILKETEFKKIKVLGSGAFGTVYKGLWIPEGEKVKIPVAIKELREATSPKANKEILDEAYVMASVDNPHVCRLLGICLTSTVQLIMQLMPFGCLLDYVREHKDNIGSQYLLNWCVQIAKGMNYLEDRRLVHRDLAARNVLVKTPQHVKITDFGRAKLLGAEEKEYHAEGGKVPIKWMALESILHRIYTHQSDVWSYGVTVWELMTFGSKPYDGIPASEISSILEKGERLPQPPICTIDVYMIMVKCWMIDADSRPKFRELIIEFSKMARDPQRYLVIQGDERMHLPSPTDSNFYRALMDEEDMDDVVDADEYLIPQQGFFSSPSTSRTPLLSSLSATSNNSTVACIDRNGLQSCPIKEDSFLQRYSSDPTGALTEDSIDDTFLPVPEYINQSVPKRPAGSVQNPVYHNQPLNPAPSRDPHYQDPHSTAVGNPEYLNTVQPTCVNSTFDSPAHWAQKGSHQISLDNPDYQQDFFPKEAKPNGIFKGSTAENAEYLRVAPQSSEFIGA
- protocol-summary: Biochemical EGFR inhibition assay (Caliper mobility shift), EGFR L858R T790M
- condition-details: apparent IC50; 1.0 mM ATP or ATP Km; FL-Peptide 22 substrate; 25° C.
measured-property: pIC50
API: returns pIC50 as number; meaning -log10 of concentration in mol/L.

Kindly indicate its recorded pIC50. Item: C=CC(=O)N1CCC[C@@H]1c1ccc(N2C[C@H](CS(C)(=O)=O)[C@H]2C)c2cnc(Nc3ccnc(N4CC[C@@H](OC)[C@@H](F)C4)n3)cc12
9.54
